Test system UniProt:O60341, IC50 listed for each of the molecules.

[[record]]
molecule = "COc1ncc(-c2c(-c3ccc(C#N)cc3)nc(N3CCC(N(C)C)CC3)c3cncn23)cn1"
recorded_result = "0.1 to 0.5 µM"

[[record]]
molecule = "CNC(=O)c1ccc(-c2c(-c3ccc(C#N)cc3)nc(N3CCC(N(C)C)CC3)c3cncn23)cn1"
recorded_result = "0.1 to 0.5 µM"

[[record]]
molecule = "CN1CCC[C@@H](COc2cc(-c3ccc(C#N)cc3)c(-c3ccc(C(C)(C)O)nc3)n3cncc23)C1"
recorded_result = "0.1 to 0.5 µM"

[[record]]
molecule = "CCN1CCC[C@@H](COc2cc(-c3ccc(C#N)cc3)c(-c3ccc(C)nc3)n3cncc23)C1"
recorded_result = "0.05 to 0.1 µM"

[[record]]
molecule = "CN1CCC[C@@H](COc2cc(-c3ccc(C#N)cc3)c(-c3cnc4cccnc4c3)n3cncc23)C1"
recorded_result = "0.1 to 0.5 µM"


The observed IC50 for `CN1CCC[C@@H](COc2nc(-c3ccc(C#N)cc3)c(-c3ccc4c(c3)n(C)c(=O)n4C)n3cncc23)C1` when tested with UniProt:O60341 stands at 0.1 to 0.5 µM

Lab entry: UniProt:O60341 assay, molecule `COC(=O)N(C)c1ccc(-c2c(-c3ccc(C#N)cc3)nc(OC[C@@H]3CCCN(C)C3)c3cncn23)cc1` , IC50 = 0.05 to 0.1 µM

Tested on UniProt:O60341: `Cc1ncc(-c2c(-c3ccc(C#N)cc3)nc(OC[C@@H]3CCCN(C)C3)c3cncn23)cc1F` . Observed IC50: 0.05 to 0.1 µM

Fill in: UniProt:O60341 IC50 for CC(O)CN1CCC[C@@H](COc2nc(-c3ccc(C#N)cc3)c(-c3cnc4c(cnn4C)c3)n3cncc23)C1 (stereo partly drawn) = 0.1 to 0.5 µM

Note to self: IC50 of `CN1CCC[C@@H](COc2nc(-c3ccc(C#N)cc3)c(-c3ccc4c(c3)CC(=O)N4C)n3cncc23)C1` with UniProt:O60341 was 0.1 to 0.5 µM

For the molecule `CN1CCC[C@@H](COc2cc(-c3ccc(C#N)cc3)c(-c3cnc4ccoc4c3)n3cncc23)C1` , the measured IC50 on UniProt:O60341 was 0.05 to 0.1 µM

Let me check: `CN1CCC[C@@H](COc2cc(-c3ccc(C#N)cc3)c(-c3cnc4c(c3)CCCO4)n3cncc23)C1` , system UniProt:O60341, measured IC50 is 0.05 to 0.1 µM

Test item `CN1CCC[C@@H](COc2nc(-c3ccc(C#N)cc3)c(-c3ccc4c(c3)OCC(=O)N4C)n3cncc23)C1` ; UniProt:O60341; reported IC50 was 0.05 to 0.1 µM

Summary: `N#Cc1ccc(-c2cc(OC[C@@H]3CCNC3)c3cncn3c2-c2ccc(N3CCOCC3)cc2)cc1` , UniProt:O60341, IC50 = 0.05 to 0.1 µM

For `CCc1ccc(-c2c(-c3ccc(C#N)cc3)cc(OC[C@@H]3CCCN(C)C3)c3cncn23)cn1` on UniProt:O60341, measured IC50 was 0.05 to 0.1 µM
